Every entry's value here was drawn from PubChem BioAssay (NCI).

Tested on: RXF 393 renal
assayOverview: NCI-60 one-dose screen, 48 h
reportedConditions: 10 µM unless noted
About 83,000 compounds went through this panel and 20% of them were active in at least one assay; those are over-represented in the sample as a whole. Activity calls are given as the source filed them. How the source made its calls: active means growth percent below 10; inactive means the rest.
Respond only with the outcome that fits, drawn from Y for active, N for inactive

{"columns": ["molecule", "system", "group"],
 "data": [
  ["CCOC(=O)/C=C\\C(=O)NC(N)=O", "RXF 393 renal", "N"]
]}

// param item: `Cc1cccc(-n2c(C)nc3ccc(NC(=O)NCCCl)cc3c2=O)c1` ; yields the recorded call N

// param item: O=[N+]([O-])c1cc(S(=O)(=O)OCC2CO2)ccc1Cl (stereo unspecified) ; yields the recorded call N

// param item: `Clc1ccc([I+]c2ccc(Cl)cc2Cl)c(Cl)c1` ; yields the recorded call Y

// param item: Cc1ccc(C2=NN(c3ccc(S(N)(=O)=O)cc3)C(c3cn(-c4ccccc4)nc3-c3ccccc3)C2)cc1 (stereo unspecified) ; yields the recorded call N

// param item: O=C(Nc1ccccc1)OCC1OCOC(COC(=O)Nc2ccccc2)C1OC(=O)Nc1ccccc1 (stereo unspecified) ; yields the recorded call N

// param item: `COc1ccc(C(=O)/C=C/c2cc(C(=O)c3cc(OC)c(OC)c(OC)c3)ccc2OC)cc1` ; yields the recorded call N

// param item: `COc1cc(/C=C/C(=O)c2ccc(NC(=O)CN3CCN(c4cc5c(cc4F)c(=O)c(C(=O)O)cn5C4CC4)CC3)cc2)cc(OC)c1OC` ; yields the recorded call Y

// param item: C#CCC1(c2ccc(F)c(F)c2)NS(=O)(=O)c2ccccc21 (stereo unspecified) ; yields the recorded call N

// param item: `COc1ccc(-n2cnc3c(sc4ncc(Cl)cc43)c2=O)cc1` ; yields the recorded call N

// param item: `CC/C=C\C[C@H]1C/C=C2/C(=O)C(Cl)=C[C@@H]2C/C=C\CCCC(=O)O1` ; yields the recorded call Y

// param item: `COc1cc(Cn2c(-c3nonc3N)nc3ccccc32)ccc1C` ; yields the recorded call Y

// param item: `COc1ccc2c(c1)NC(=O)CN2c1nc(C)nc2ccccc12` ; yields the recorded call N

// param item: `Cc1sc(N=Nc2ccc(N(C)C)cc2)[n+]([O-])c1C` ; yields the recorded call N

// param item: `Cc1ccc(OCCn2c(C)nn(-c3ccc(Cl)cc3)c2=O)cc1` ; yields the recorded call N

// param item: `Cc1cc(C)c(S(=O)(=O)N2CCN(c3cc4c(cc3F)c(=O)c(C(=O)O)cn4C3CC3)CC2)c(C)c1` ; yields the recorded call N

----------
Test system: NCI/ADR-RES ovarian
assayOverview: NCI-60 one-dose screen, 48 h (100 = growth as untreated, 0 = no growth, -100 = all killed)
reportedConditions: 10 µM unless noted
The panel holds about 83,000 compounds, 20% with a hit somewhere; the sample as a whole holds those more often.
# label = 1 (yes) if growth >= 50% else 0 (no)

Consider the worked cases shown below.
{"columns": ["molecule", "system", "group"],
 "data": [
  ["Cc1nc2sccn2c1-c1csc(Nc2ccccc2Cl)n1", "NCI/ADR-RES ovarian", "0 (no)"],
  ["O=C(c1c[nH]c2ccccc12)C(Sc1nc2ccccc2c(=O)[nH]1)c1ccccc1 (centres undefined)", "NCI/ADR-RES ovarian", "1 (yes)"],
  ["Cc1ccc2c(c1)C(C)Cc1c(ncnc1-n1cnc3ccccc31)N2C (centres undefined)", "NCI/ADR-RES ovarian", "0 (no)"],
  ["Cc1nn(-c2ccc(Cl)cc2)c(=O)n1CCOc1ccccc1Cl", "NCI/ADR-RES ovarian", "1 (yes)"],
  ["CC(C)(C)c1cc(-c2nc3ccc(N4CCN(CCO)CC4)cc3[nH]2)cc(C(C)(C)C)c1O", "NCI/ADR-RES ovarian", "1 (yes)"],
  ["CCCCCCCCCCCCNC(=S)N/N=C/c1ccc(Cl)c(Cl)c1", "NCI/ADR-RES ovarian", "1 (yes)"],
  ["COc1ncc(-c2ccc3ncnc(Nc4cccc(Cl)c4)c3c2)cc1NS(=O)(=O)CCN1CCOCC1", "NCI/ADR-RES ovarian", "0 (no)"],
  ["COC(=O)CC/C(C)=N\\Nc1ccc([N+](=O)[O-])cc1", "NCI/ADR-RES ovarian", "1 (yes)"],
  ["CCc1cccc(C)c1NC(=O)c1sc2nc3c(cc2c1N)C(=O)CCC3", "NCI/ADR-RES ovarian", "0 (no)"],
  ["COc1ccc(/C(=N/O)c2cc(F)c(F)c(OC)c2F)cc1O", "NCI/ADR-RES ovarian", "0 (no)"]
]}

Read the next record carefully.
Threshold query (growth >= 50%) on `Cc1ccc2nc(-c3c(CCCO)noc3N)[nH]c(=O)c2c1` 1 (yes)

----------
This section presents compounds with their documented growth values.
System: MOLT-4 leukemia
assayOverview: NCI-60 one-dose screen, 48 h (100 = growth as untreated, 0 = no growth, -100 = all killed)
reportedConditions: 10 µM unless noted
This is part of a sample that, as a whole, favours compounds with a hit. Of some 83,000 tested, about 20% had one in any assay.
Express the result in % but write the number alone.

The cases that follow already have their growth on record.
{"columns": ["compound", "growth [%]"],
 "data": [
  ["CCCCC[C@@H]1Cc2cc(O)c(C(=O)O)c3c2[C@H](C[C@@]2(CCCO2)O3)O1", 62.6],
  ["O=S(=O)(NCCCNc1nccc(-c2c(-c3ccc(F)c(O)c3)nc3sccn23)n1)c1ccc(Cl)cc1", 46.1],
  ["O=c1oc2cc(OS(=O)(=O)c3ccccc3)c(Cl)cc2c2c1CCCCCC2", 77.4],
  ["Cc1cc(Nc2nc(C(=O)Nc3ccccc3)nc3ccccc23)n[nH]1", 55.4],
  ["CC(=O)C1CCC(C)=CC1=O (stereo unspecified)", 88.3],
  ["CC1=NN2C(=NC3=C(CCC/C3=C\\c3ccc(Cl)cc3)C2c2ccc(Cl)cc2)S1 (stereo unspecified)", 72.9]
]}

Item under review: `O=C(/C=C/c1ccccc1)n1c(-c2ccc(Cl)cc2)nc2ccccc21` . Reported growth? 21.9

Item under review: `O=C(Nc1ccc(Cl)cc1)c1cc(-c2ccc(F)cc2)c2sc(=O)[nH]c2n1` . Reported growth? 13.9

Item under review: `CSc1ccccc1C#C/C=C\C#Cc1ccccc1N1CCCCC1=O` . Reported growth? 104

Item under review: C=CCOc1ccc(/C(O)=C2\C(=O)C(=O)N(c3nccs3)C2c2ccccc2F)cc1 (stereo unspecified) . Reported growth? 98.3

Item under review: O=C(COc1ccccc1)N1N=C(c2ccc(Cl)cc2)CC1c1c[nH]c2ccccc12 (stereo unspecified) . Reported growth? -8.31

Item under review: `COc1ccc(S(=O)(=O)NCCNc2nccc(-c3c(-c4ccccc4)nc4sccn34)n2)cc1` . Reported growth? 5.16

----------
Test system: DU-145 prostate
assayOverview: NCI-60 one-dose screen, 48 h
reportedConditions: 10 µM unless noted
About 83,000 compounds went through this panel and 20% of them were active in at least one assay; those are over-represented in the sample as a whole. Activity calls are given as the source filed them. How the source made its calls: active means growth percent below 10; inactive means the rest.
Respond only with the outcome that fits, drawn from 1.0 for active, 0.0 for inactive

Consider the worked cases shown below.
{"columns": ["compound", "system", "group"],
 "data": [
  ["Cc1cccc2cc(/C=C/C(=O)/C=C/c3ccc(Cl)cc3)c(=O)[nH]c12", "DU-145 prostate", 0.0],
  ["Nc1c(C(=O)Nc2cccc([N+](=O)[O-])c2)sc2nc3c(cc12)C(O)CCC3 (stereo not given)", "DU-145 prostate", 0.0],
  ["COc1cc(NC(=O)c2cc3ccccc3nc2Nc2ccc(F)cc2)cc(OC)c1OC", "DU-145 prostate", 0.0],
  ["Cc1ccc(S(=O)(=O)OC2COCOC2C(OS(=O)(=O)c2ccc(C)cc2)C2OCOCC2OS(=O)(=O)c2ccc(C)cc2)cc1 (stereo not given)", "DU-145 prostate", 0.0],
  ["COc1cc(OC)c(C(=O)/C=C/c2cccc(C#N)c2)c(OC)c1", "DU-145 prostate", 0.0]
]}

// param item: `COC(=O)c1cc(-c2cccs2)c(C#N)c(N)c1C#N` ; yields the recorded call 0.0

// param item: `Cc1ccc2nc(SCn3nnc4ccccc4c3=O)[nH]c2c1` ; yields the recorded call 0.0

// param item: `CCCCCCc1nc2c(c(C)nn2-c2ccccc2)c2c1CCCCC2` ; yields the recorded call 0.0

// param item: `COc1ccc(/C=C2\C(=O)N(C(=O)c3csc(NC(C)=O)n3)N=C2C)cc1` ; yields the recorded call 0.0

// param item: `CCOP(=O)(CCN1CCN(CCCCCOc2cc3c(cc2OC)C(=O)N2CCC[C@H]2C=N3)CC1)OCC` ; yields the recorded call 0.0

// param item: CCCC1OC(c2ccc(C(C)C)cc2)OCC1CC (stereo not given) ; yields the recorded call 0.0

// param item: `O=C(CNc1c(Cl)cccc1Cl)Nc1ccc(-c2nc3ccccc3s2)cc1` ; yields the recorded call 0.0

// param item: `CCN(CC)S(=O)(=O)c1ccc2[nH]c(=O)cc(C(=O)Nc3ccc(OC)cc3OC)c2c1` ; yields the recorded call 0.0

// param item: `O=C(/C=C/c1ccccc1)n1c(-c2ccc(Cl)cc2)nc2ccccc21` ; yields the recorded call 0.0

// param item: CCN(CC)CCCC(C)N=c1cc(Nc2cc(=NC(C)CCCN(CC)CC)c3cc(OC)ccc3o2)oc2ccc(OC)cc12 (stereo not given) ; yields the recorded call 1.0

// param item: `COc1cc(CCn2nnc3c(NCCCCO)ncnc32)cc(OC)c1` ; yields the recorded call 0.0

// param item: `COc1ccc(Cn2c(SC)nc(=O)n(Cc3ccc(Cl)cc3)c2=O)cc1` ; yields the recorded call 0.0

// param item: `O=C1CCCCN1CCCCC#Cc1ccccc1C#Cc1ccccn1` ; yields the recorded call 0.0

// param item: `CCN(CC)P(=O)(N(CC)CC)N(CCCSC/C=C(\C)CC/C=C(\C)CCC=C(C)C)CCCN1CCN(C)CC1` ; yields the recorded call 0.0

// param item: `COc1cccc(-c2nc3sccn3c2-c2ccnc(NCCCNS(=O)(=O)c3ccccc3)n2)c1` ; yields the recorded call 0.0
